Each recorded value in this set is attributed to patent US20210380675A1.

- SYSTEM_TESTED: T1, human IL-36α(Q12), truncated (human, UniProt Q9UHA7 6-158)
- T1 construct: Untagged after removal of the His-SUMO tag
- T1 sequence: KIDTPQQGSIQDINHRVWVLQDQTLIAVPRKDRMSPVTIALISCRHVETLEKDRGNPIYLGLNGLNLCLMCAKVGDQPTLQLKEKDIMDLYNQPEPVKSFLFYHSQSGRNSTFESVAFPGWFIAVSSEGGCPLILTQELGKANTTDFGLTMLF
- ASSAY_COMMENT: SPR, Biacore T200, antibody on chip, IL-36 as analyte, 1:1 Langmuir fit
Kd vs 2 nM: less than gives 1.0; not less than gives 0.0.

# BINDER, DISCRETE_LABEL
records = [
    ("m/h 144L249B (antibody, human IgG1, lambda, V domains shown, Mouse VH/VL joined to human IgG1 constant and human Ig lambda (IGLC2) constant; also called chimeric mouse/human 144L249B) VH: EVQLQQSGAELVKPGASVKLSCTASGFNIKDTYIYWVKQRPEQGLEWIGRIDPAIGTTRYDPKFQGKATLTADTSSNTAFLQLSSLTSEDTAVYYCARYDYSGSSFYFDYWGRGTTLTVSS VL: QAVVTQESALTTSPGETVTLTCRSSTGAVTTSNYANWVQEKPDHLFTGLIGGTNNRAPGVPARFSGSLIGDKAALTITGAQTEDEAIYFCALWYSNHLVFGGGTKLTVLG", 1.0),
    ("m/h 144L124B (antibody, human IgG1, lambda, V domains shown, Mouse VH/VL joined to human IgG1 constant and human Ig lambda (IGLC2) constant; also called chimeric mouse/human 144L124B) VH: EVQLQQSGAELVKPGASVKLSCTASGFNIKDTYIYWVKQRPEQGLEWIGRIDPANGYTRYDPKFQGKATMTADTSSNTAYLQLSSLTSEDTAVYYCARYEYYDSSFYFDYWGQGTTLTVSS VL: QAVVTQESALTTSPGETVTLTCRSSTGAVTTSNYANWVQEKPDHLFTGLIGGTNNRAPGVPARFSGSLIGDKAALTITGAQTEDEAIYFCALWYSNHLVFGGGTKLTVLG", 1.0),
    ("chimeric m/h 144D464A (antibody, human IgG1, lambda, V domains shown, Mouse VH/VL joined to human IgG1 constant and human Ig lambda (IGLC2) constant; also called chimeric mouse/human (m/h) 144D464A antibody) VH: EVQLQQSGAELVKPGASVRLSCTASGFNIKDTYIHWVKQRPEQGLEWIGRIDPAIGTTRYDPKFQGKATITTDTSSDTVHLQFSSLTSEDTAVYYCARLHYFGNNFFFDYWGQGTTLTVSS VL: QAVVTQESALTTSPGEAVTLTCRSSSGAVTTSNYANWVQEKPDHLFAGLIGGTNDRAPGVPARFSGSLIGDKAALTITGAQTEDEAIYFCALWFSNHWVFGGGTKLTVLG", 1.0),
    ("m/h 144D666C (antibody, human IgG1, lambda, V domains shown, Mouse VH/VL joined to human IgG1 constant and human Ig lambda (IGLC2) constant; also called chimeric mouse/human 144D666C) VH: EVQLQQSGAELVKPGASVKLTCTASGFNIKDTYIYWVKQRPAQGLEWIGRIDPANAYTKFDPKFQGKATLTADTSSNTAYLQLSSLTSEDTAVYYCTRFHWYGSSFFFDYWGQGTTLTVSS VL: QAVVTQESALTTSPGETVTLTCRSSTGAVTTSNYANWVQEKPDHLFTGLIGGTDNRPPGVPARFSGSLIGDKAALTITGAQTEDEAIYFCALWYSNLWVFGGGTKLTVLG", 1.0),
]

Query binder follows.
Is the reported Kd for m/h 144J171G (antibody, human IgG1, lambda, V domains shown, Mouse VH/VL joined to human IgG1 constant and human Ig lambda (IGLC2) constant; also called chimeric mouse/human 144J171G) VH: EVQLQQSGAELVEPGASVKLSCTASGFNIKDTYINWVKQRPEQGLEWIGRIDPANGYTRYAPKFQGKATITSDTSSNTAYLQLSSLTSEDAAVYSCSTLNYYGSSFFFDFWGQGTTLTVSS VL: QAVVTQESALTTSPGETVTLTCRSSTGAVTTSNYANWVQEKPDHLFTGLIGGTNNRAPGVPARFSGSLIGDKAALTITGAQTEDEAIYFCALWYSNHWVFGGGTKLTVLG strictly below 2 nM?
0.0
